Reference for the values: ChEMBL document CHEMBL3882725

system name: Mitogen-activated protein kinase 9 (Homo sapiens, UniProt P45984)
Sequence (P45984 whole entry, the tested form may be a part): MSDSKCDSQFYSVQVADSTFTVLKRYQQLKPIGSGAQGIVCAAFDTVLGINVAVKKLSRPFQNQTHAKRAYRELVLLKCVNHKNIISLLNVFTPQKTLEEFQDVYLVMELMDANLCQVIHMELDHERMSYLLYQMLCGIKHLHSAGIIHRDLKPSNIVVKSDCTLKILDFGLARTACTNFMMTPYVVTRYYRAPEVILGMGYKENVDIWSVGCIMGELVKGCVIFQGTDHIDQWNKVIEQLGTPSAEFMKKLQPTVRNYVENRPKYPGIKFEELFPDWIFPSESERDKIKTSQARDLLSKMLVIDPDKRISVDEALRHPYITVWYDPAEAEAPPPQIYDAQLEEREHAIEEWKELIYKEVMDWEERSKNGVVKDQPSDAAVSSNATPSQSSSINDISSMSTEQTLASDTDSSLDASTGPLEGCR
test: Inhibition of His6-tagged JNK2 (unknown origin) assessed as reduction in c-Jun phosphorylation using GST-c-Jun (1 to 79 residues) and [gamma32P]ATP incubated for 1 hr by scintillation counting assay
Listing of entries alongside the reported IC50.

{"columns": ["input smiles", "IC50"],
 "data": [
  ["CN(C)Cc1n[nH]c(-c2ccc3[nH]nc(-c4cc5ccccc5o4)c3c2)n1", "1 to 10 µM"],
  ["Nc1cccc(-c2n[nH]c3ccc(-c4nnc[nH]4)cc23)c1", "1 to 10 µM"],
  ["COc1ccc(-c2n[nH]c3ccc(-c4nnn[nH]4)cc23)cc1", "0.5 to 10 µM"],
  ["CCCC(=O)Nc1cccc(-c2n[nH]c3ccc(-c4nc[nH]n4)cc23)c1", "0.5 to 10 µM"],
  ["NC(=O)c1ccc2[nH]nc(-c3cccc(NC(=O)Cc4ccccc4F)c3)c2c1", "0.5 to 10 µM"]
]}

The reported IC50 of the molecule CC(=O)N1CCN(CCOc2cccc(-c3n[nH]c4ccc(-c5ncn[nH]5)cc34)c2)CC1 was 1 to 10 µM

The reported IC50 of the molecule NC(=O)c1ccc2[nH]nc(-c3cccc(NC(=O)CCc4ccccc4)c3)c2c1 was 1 to 10 µM

The reported IC50 of the molecule CN(C)CC(=O)Nc1cccc(-c2n[nH]c3ccc(C(N)=O)cc23)c1 was 1 to 10 µM

The reported IC50 of the molecule O=C(Nc1ccccc1)c1ccc2[nH]nc(-c3ccc(F)cc3)c2c1 was ≤ 10 µM

The reported IC50 of the molecule NC(=O)c1ccc2[nH]nc(C#Cc3ccccc3)c2c1 was 1 to 10 µM

====

system name: Mitogen-activated protein kinase 9 (Homo sapiens, UniProt P45984)
test: Inhibition of His6-tagged JNK2 (unknown origin) assessed as reduction in c-Jun phosphorylation using GST-c-Jun (1 to 79 residues) and [gamma32P]ATP incubated for 1 hr by scintillation counting assay
endpoint name: IC50

A selection of reference data follows.
{"columns": ["input smiles", "endpoint name", "measured value"],
 "data": [
  ["CN(C)CCCOc1cccc(-c2n[nH]c3ccc(-c4nnn[nH]4)cc23)c1", "IC50", "0.5 to 10 µM"],
  ["CN(C)CC(=O)Nc1cccc(-c2n[nH]c3ccc(-c4nc[nH]n4)cc23)c1", "IC50", "0.5 to 10 µM"],
  ["CN(C)Cc1nc(-c2ccc3[nH]nc(-c4cccc(C(=O)NCc5ccc(F)cc5)c4)c3c2)n[nH]1", "IC50", "0.5 to 10 µM"],
  ["O=C(N[C@@H]1c2ccccc2C[C@@H]1O)c1cccc(-c2n[nH]c3ccc(-c4ncn[nH]4)cc23)c1", "IC50", "1 to 10 µM"]
]}

The reported IC50 of the compound Oc1ccccc1-c1n[nH]c2ccc(-c3nnn[nH]3)cc12 was 1 to 10 µM

====

Listing of entries alongside the reported pIC50.
system name: Mitogen-activated protein kinase 9 (Homo sapiens, UniProt P45984)
test: Inhibition of His6-tagged JNK2 (unknown origin) assessed as reduction in c-Jun phosphorylation using GST-c-Jun (1 to 79 residues) and [gamma32P]ATP incubated for 1 hr by scintillation counting assay
pIC50: −log10 of the molar value.

A selection of reference data follows.
{"columns": ["compound", "system name", "pIC50"],
 "data": [
  ["NC(=O)c1ccc2[nH]nc(-c3cccc(NC(=O)Cc4ccncc4)c3)c2c1", "Mitogen-activated protein kinase 9 (Homo sapiens, UniProt P45984)", "5.00 to 6.30"],
  ["O=C(NCc1ccccc1)c1cccc(-c2n[nH]c3ccc(-c4ncn[nH]4)cc23)c1", "Mitogen-activated protein kinase 9 (Homo sapiens, UniProt P45984)", "5.00 to 6.30"],
  ["c1nc(-c2ccc3[nH]nc(-c4ccc5c(c4)OCO5)c3c2)n[nH]1", "Mitogen-activated protein kinase 9 (Homo sapiens, UniProt P45984)", "5.00 to 6.00"],
  ["O=C(Nc1cccc(-c2n[nH]c3ccc(-c4nc[nH]n4)cc23)c1)C(=O)c1ccco1", "Mitogen-activated protein kinase 9 (Homo sapiens, UniProt P45984)", "5.00 to 6.00"],
  ["O=C(Cc1ccc(F)cc1)Nc1cccc(-c2n[nH]c3ccc(-c4nc[nH]n4)cc23)c1", "Mitogen-activated protein kinase 9 (Homo sapiens, UniProt P45984)", "5.00 to 6.30"]
]}

The reported pIC50 of the compound O=C(NC1CCCC1)c1cccc(-c2n[nH]c3ccc(-c4nc[nH]n4)cc23)c1 was 5.00 to 6.30

The reported pIC50 of the compound O=C(Nc1ccc2[nH]nc(-c3ccc(F)cc3)c2c1)c1ccccc1 was 5.00 to 6.00

The reported pIC50 of the compound NC(=O)c1ccc(C(=O)Nc2ccc3[nH]nc(-c4ccc(F)cc4)c3c2)cc1 was 5.00 to 6.00

The reported pIC50 of the compound CC(Oc1ccccc1)C(=O)Nc1cccc(-c2n[nH]c3ccc(-c4nc[nH]n4)cc23)c1 (centres undefined) was 5.00 to 6.30

====

Listing of entries alongside the reported pIC50.
system name: Mitogen-activated protein kinase 9 (Homo sapiens, UniProt P45984)
test: Inhibition of His6-tagged JNK2 (unknown origin) assessed as reduction in c-Jun phosphorylation using GST-c-Jun (1 to 79 residues) and [gamma32P]ATP incubated for 1 hr by scintillation counting assay
pIC50: −log10 of the molar value.

The reported pIC50 of the compound O=C(CCN1CCCCC1)Nc1cccc(-c2n[nH]c3ccc(-c4nn[nH]n4)cc23)c1 was 5.00 to 6.30

The reported pIC50 of the compound c1ccc2cc(-c3n[nH]c4ccc(-c5nnn[nH]5)cc34)ccc2c1 was 5.00 to 6.30

The reported pIC50 of the compound O=C(CCc1ccccc1)Nc1cccc(-c2n[nH]c3ccc(-c4nc[nH]n4)cc23)c1 was 5.00 to 6.30

The reported pIC50 of the compound O=C(Nc1cccnc1)c1ccc2[nH]nc(-c3ccc(F)cc3)c2c1 was 5.00 to 6.00

The reported pIC50 of the compound O=C(NC1CCCCC1)c1cccc(-c2n[nH]c3ccc(-c4nc[nH]n4)cc23)c1 was 5.00 to 6.30

The reported pIC50 of the compound CC(O)CNC(=O)c1ccc2[nH]nc(-c3ccc(F)cc3)c2c1 (stereo unspecified) was 5.00 to 6.00

The reported pIC50 of the compound C(=C\c1n[nH]c2ccc(-c3nc[nH]n3)cc12)/c1ccccc1 was 5.00 to 6.00

The reported pIC50 of the compound Fc1ccc(-c2n[nH]c3ccc(-c4cc[nH]n4)cc23)cc1 was 5.00 to 6.00

The reported pIC50 of the compound O=C(O)CCCNC(=O)c1ccc2[nH]nc(-c3ccc(F)cc3)c2c1 was 5.00 to 6.00

The reported pIC50 of the compound Fc1ccc(-c2n[nH]c3ccc(CCc4ccccn4)cc23)cc1 was ≥ 5.00

The reported pIC50 of the compound O=C(c1ccc2[nH]nc(-c3ccc(F)cc3)c2c1)N1CCCC1 was ≥ 5.00

====

Listing of entries alongside the reported IC50.
system name: Mitogen-activated protein kinase 9 (Homo sapiens, UniProt P45984)
test: Inhibition of His6-tagged JNK2 (unknown origin) assessed as reduction in c-Jun phosphorylation using GST-c-Jun (1 to 79 residues) and [gamma32P]ATP incubated for 1 hr by scintillation counting assay

A selection of reference data follows.
{"columns": ["compound", "system name", "measured value"],
 "data": [
  ["O=C(Nc1cccc2c1CCCC2)c1cccc(-c2n[nH]c3ccc(-c4nc[nH]n4)cc23)c1", "Mitogen-activated protein kinase 9 (Homo sapiens, UniProt P45984)", "0.5 to 10 µM"],
  ["NCCOc1cccc(-c2n[nH]c3ccc(-c4ncn[nH]4)cc23)c1", "Mitogen-activated protein kinase 9 (Homo sapiens, UniProt P45984)", "≤ 10 µM"]
]}

The reported IC50 of the compound NC(=O)c1ccc(NC(=O)c2ccc3[nH]nc(-c4ccc(F)cc4)c3c2)cc1 was 1 to 10 µM

The reported IC50 of the compound c1cncc(-c2n[nH]c3ccc(-c4nnn[nH]4)cc23)c1 was ≤ 10 µM

The reported IC50 of the compound CC(c1nc(-c2ccc3[nH]nc(-c4ccc(F)cc4)c3c2)n[nH]1)N(C)C (stereo unspecified) was 0.5 to 10 µM

The reported IC50 of the compound COc1ccc(-c2n[nH]c3ccc(NC(=O)c4ccc(C(=O)O)cc4)cc23)cc1 was 1 to 10 µM

The reported IC50 of the compound O=C(NC1CCN(Cc2ccccc2)C1)c1cccc(-c2n[nH]c3ccc(-c4nc[nH]n4)cc23)c1 (stereo unspecified) was 0.5 to 10 µM

The reported IC50 of the compound CNCc1nc(-c2ccc3[nH]nc(-c4ccc(F)cc4)c3c2)n[nH]1 was 0.5 to 10 µM

The reported IC50 of the compound CCOC(=O)Cc1n[nH]c(-c2ccc3[nH]nc(-c4ccc(F)cc4)c3c2)n1 was 1 to 10 µM

The reported IC50 of the compound O=C(Nc1ccc(-c2n[nH]c3ccc(-c4nc[nH]n4)cc23)cc1)c1cccnc1 was 1 to 10 µM

The reported IC50 of the compound CN(C)CC(=O)Nc1ccc(-c2n[nH]c3ccc(-c4nc[nH]n4)cc23)cc1 was 1 to 10 µM

The reported IC50 of the compound O=C(O)CCc1nnc(-c2ccc3[nH]nc(-c4ccc(F)cc4)c3c2)[nH]1 was 1 to 10 µM

The reported IC50 of the compound Fc1ccc(-c2n[nH]c3ccc(-c4nc(-c5ccco5)n[nH]4)cc23)cc1 was 1 to 10 µM
